Where these numbers come from: ChEMBL document CHEMBL1158135

System: P388
protocolSummary: Cytotoxicity against mouse P388 cells after 72 hrs by MTT assay
Type: functional, cell-based
particulars: P388, 72 h
experimentalReadout: IC50 (µM)
Numbers only, in µM.

Requested field: IC50. Item: `CC(=O)CC(C)(C)N.CC(C)=CCC[C@@H](C)/C=C/CCOS(=O)(=O)O`
290
